# system_under_test: KRAS G12D (Homo sapiens, UniProt P01116, G12D)
# Sequence (P01116 with tags, fused parts or gaps isoform P01116-2 G12D): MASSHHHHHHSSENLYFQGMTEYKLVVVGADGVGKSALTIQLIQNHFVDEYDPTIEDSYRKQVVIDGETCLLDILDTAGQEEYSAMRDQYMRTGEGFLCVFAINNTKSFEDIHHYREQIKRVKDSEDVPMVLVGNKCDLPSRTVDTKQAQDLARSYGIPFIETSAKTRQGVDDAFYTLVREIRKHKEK
# assay_comment: Inhibitory activity on KRAS G12D nucleotide (GDP-GTP) exchange reaction in vitro (SOS1-dependent, BODIPY FL GDP)
# reported_conditions: BODIPY FL GDP-bound recombinant KRAS G12D, 25° C. 1 hour preincubation, then SOS1 and GMPPNP 30 minutes at room temperature
measured_property: pIC50
// pIC50: -log10(molar conc.)

Value of measured pIC50 for the entry `CN[C@H]1C[C@@H]1N(C)C(=O)c1c(Cl)nc(CNc2n[nH]c3cc(Cl)c(C(C)(C)C)cc23)n1C` : 4.42

Please fill in: pIC50 reported for `CN(CCN)C(=O)c1c(Cl)nc(CNc2n[nH]c3cc(Cl)c(C(C)(C)C)cc23)n1C` = 4.36

What the record says about `CN(C(=O)c1c(Cl)nc(CNc2n[nH]c3cc(Cl)c(C(C)(C)C)cc23)n1C)[C@@H]1CCNC1` : pIC50 is 4.73

Note: attention shifts to another entry.
What the record says about CN(C(=O)c1c(Cl)nc(CNc2n[nH]c3cc(Cl)c(C(C)(C)C)cc23)n1C)C1CCNC1 (stereo not shown) : pIC50 is 4.50
